- Experimental Target: Neuronal acetylcholine receptor; alpha4/beta2 (Homo sapiens, UniProt P17787+P43681)
- Sequence (P17787 whole entry): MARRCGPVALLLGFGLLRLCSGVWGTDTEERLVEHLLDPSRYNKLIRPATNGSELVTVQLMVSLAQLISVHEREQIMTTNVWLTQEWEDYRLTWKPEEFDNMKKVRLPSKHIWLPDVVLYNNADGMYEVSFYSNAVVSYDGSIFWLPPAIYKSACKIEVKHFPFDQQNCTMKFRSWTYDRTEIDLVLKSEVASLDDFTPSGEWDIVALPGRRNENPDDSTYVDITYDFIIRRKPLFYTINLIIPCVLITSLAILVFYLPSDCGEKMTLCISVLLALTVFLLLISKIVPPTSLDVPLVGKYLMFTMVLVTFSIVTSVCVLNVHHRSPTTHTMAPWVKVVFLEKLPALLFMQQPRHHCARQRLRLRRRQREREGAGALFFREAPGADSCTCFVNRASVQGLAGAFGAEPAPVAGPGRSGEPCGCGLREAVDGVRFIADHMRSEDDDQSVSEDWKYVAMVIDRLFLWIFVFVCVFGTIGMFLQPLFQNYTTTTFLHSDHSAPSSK
- Sequence (P43681 whole entry): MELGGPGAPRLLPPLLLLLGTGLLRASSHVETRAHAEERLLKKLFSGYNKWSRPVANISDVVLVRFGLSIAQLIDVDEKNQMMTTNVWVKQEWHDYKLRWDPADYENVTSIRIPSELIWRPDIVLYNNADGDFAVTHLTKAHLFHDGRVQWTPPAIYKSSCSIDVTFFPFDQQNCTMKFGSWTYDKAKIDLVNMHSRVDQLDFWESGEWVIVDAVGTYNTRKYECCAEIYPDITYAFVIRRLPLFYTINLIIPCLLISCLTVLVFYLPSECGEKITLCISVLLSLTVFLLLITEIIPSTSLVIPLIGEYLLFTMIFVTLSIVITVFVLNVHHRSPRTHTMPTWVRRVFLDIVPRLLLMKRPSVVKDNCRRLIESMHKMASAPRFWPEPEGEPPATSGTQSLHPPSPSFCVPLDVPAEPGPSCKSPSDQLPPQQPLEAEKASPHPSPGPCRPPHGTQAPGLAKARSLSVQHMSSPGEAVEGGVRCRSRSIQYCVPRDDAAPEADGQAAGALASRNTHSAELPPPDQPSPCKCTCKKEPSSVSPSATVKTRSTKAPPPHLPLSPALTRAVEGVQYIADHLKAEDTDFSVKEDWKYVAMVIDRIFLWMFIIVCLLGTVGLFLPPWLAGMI
- Test Name: Displacement of [3H]epibatidine from human alpha4beta2 nAchR expressed in SH-EP1 cells
pKi: −log10 of the molar value.
Reported Metric: pKi

- Mol: "COc1ccc(/C=C2\\CCCN=C2c2cccnc2)c(OC)c1"
  Recorded Value: 7.29

====

- Experimental Target: Neuronal acetylcholine receptor; alpha4/beta2 (Homo sapiens, UniProt P17787+P43681)
- Test Name: Displacement of [3H]epibatidine from human alpha4beta2 nAchR expressed in SH-EP1 cells at 5 uM
- Format: cell-based
Class field: derived from inhibition; ranges low range (below 7%), mid range (7% to below 20%), high range (20% or more)

- Molecule: "c1ccc(C2=NC3(CN2)CN2CCC3CC2)cc1 (stereo not given)"
  Experimental Target: "Neuronal acetylcholine receptor; alpha4/beta2 (Homo sapiens, UniProt P17787+P43681)"
  Assigned Class: "mid range"
- Molecule: "OC1=CC(c2ccccc2)=NCC2(CN3CCC2CC3)N1 (stereo not given)"
  Experimental Target: "Neuronal acetylcholine receptor; alpha4/beta2 (Homo sapiens, UniProt P17787+P43681)"
  Assigned Class: "mid range"
- Molecule: "O=C1CC(c2ccc(Br)s2)=NCC2(CN3CCC2CC3)N1 (stereo not given)"
  Experimental Target: "Neuronal acetylcholine receptor; alpha4/beta2 (Homo sapiens, UniProt P17787+P43681)"
  Assigned Class: "high range"
- Molecule: "COc1ccc(C2=NCC3(CN4CCC3CC4)NC(=O)C2)cc1 (stereo not given)"
  Experimental Target: "Neuronal acetylcholine receptor; alpha4/beta2 (Homo sapiens, UniProt P17787+P43681)"
  Assigned Class: "high range"
- Molecule: "Oc1ccccc1C1=NC2(CN1)CN1CCC2CC1 (stereo not given)"
  Experimental Target: "Neuronal acetylcholine receptor; alpha4/beta2 (Homo sapiens, UniProt P17787+P43681)"
  Assigned Class: "low range"
- Molecule: "Oc1c(C2=NC3(CN2)CN2CCC3CC2)oc2ccccc12 (stereo not given)"
  Experimental Target: "Neuronal acetylcholine receptor; alpha4/beta2 (Homo sapiens, UniProt P17787+P43681)"
  Assigned Class: "high range"
- Molecule: "Nc1c(C2=NC3(CN2)CN2CCC3CC2)oc2ccccc12 (stereo not given)"
  Experimental Target: "Neuronal acetylcholine receptor; alpha4/beta2 (Homo sapiens, UniProt P17787+P43681)"
  Assigned Class: "mid range"
- Molecule: "O=C1CC(c2ccco2)=NCC2(CN3CCC2CC3)N1 (stereo not given)"
  Experimental Target: "Neuronal acetylcholine receptor; alpha4/beta2 (Homo sapiens, UniProt P17787+P43681)"
  Assigned Class: "mid range"
- Molecule: "COc1cccc(C2=NCC3(CN4CCC3CC4)NC(=O)C2)c1 (stereo not given)"
  Experimental Target: "Neuronal acetylcholine receptor; alpha4/beta2 (Homo sapiens, UniProt P17787+P43681)"
  Assigned Class: "mid range"
- Molecule: "c1ccc2oc(C3=NC4(CN3)CN3CCC4CC3)cc2c1 (stereo not given)"
  Experimental Target: "Neuronal acetylcholine receptor; alpha4/beta2 (Homo sapiens, UniProt P17787+P43681)"
  Assigned Class: "low range"
- Molecule: "O=C1NCC2(CN3CCC2CC3)NC(=O)C1c1ccccc1 (stereo not given)"
  Experimental Target: "Neuronal acetylcholine receptor; alpha4/beta2 (Homo sapiens, UniProt P17787+P43681)"
  Assigned Class: "low range"
- Molecule: "C1=NCC2(CN3CCC2CC3)NC=C1c1ccccc1 (stereo not given)"
  Experimental Target: "Neuronal acetylcholine receptor; alpha4/beta2 (Homo sapiens, UniProt P17787+P43681)"
  Assigned Class: "low range"
- Molecule: "COc1cc(O)ccc1/C=C1\\CCCN=C1c1cccnc1"
  Experimental Target: "Neuronal acetylcholine receptor; alpha4/beta2 (Homo sapiens, UniProt P17787+P43681)"
  Assigned Class: "high range"
